# inhibition per entry
target: Hexose transporter 1 (Plasmodium falciparum)
test.method.notes: ST_JUDE_LEISH: Cytotoxicity at 2uM final concentration against transgenic Leishmania Mexicana promastigotes LmPfHT that are glucose transport deficient and complemented with the Plasmodium falciparum hexose transporter. Activity is measured by DNA content using SYBR green in vitro
Type: functional
observation.type: inhibition (%)

                                    compound  observation_type  unit_name  reported_result
 0  COc1cc(C(=O)Nc2ccc3nc(N4CCN(C)CC4)cc(C)c3c2)cc(OC)c1OC        inhibition          %             0.31
 1  O=C(Nc1cc(C(F)(F)F)ccc1N1CCOCC1)C(Cl)(Cl)Cl        inhibition          %             9.77
 2  FC(F)(F)c1ccc2[nH]c(-c3ccc(-c4cccc(CNCC5CCCO5)c4)cc3)nc2c1 (stereo not drawn)        inhibition          %             2.83
 3  Cc1ccc2[nH]ncc2c1N(CC1CCCCC1)c1ccnc(Nc2ccc(OCC(O)CN3CC=CCC3)cc2)n1 (stereo not drawn)        inhibition          %             3.33
 4  CN(C)Cc1ccc(-c2ccc(NC(=O)c3ccc4c(=O)n(Cc5ccccc5)cnc4c3)cc2)cc1        inhibition          %               94
 5  COc1ccc(CNC2CCN(C)CC2)cc1-c1ccc(S(=O)(=O)NCc2ccccc2)cc1        inhibition          %             4.24
 6        CC1(C)NC(N)=NC(=N)N1OCCCCOc1ccccc1        inhibition          %             0.84
 7  O=C(/C=C/c1ccc(CNCCN2CCOCC2)cc1)NCCc1ccccc1        inhibition          %               -1
 8  O=C(Nc1ccc(S(=O)(=O)N2CCCCC2)cc1)c1cc(-c2ccccc2O)n[nH]1        inhibition          %               12
 9  COc1ccc(S(=O)(=O)N2CCC3(CC2)OCC(=O)NC3c2ccc(Cl)c(Cl)c2)cc1 (stereo not drawn)        inhibition          %             1.47
10  N=C(NCC1CC1c1ccccc1)c1cccc(C(=N)NCC2CC2c2ccccc2)n1 (stereo not drawn)        inhibition          %             5.88
11  CCOc1ccc(-c2nonc2NC(=O)c2ccccc2Cl)cc1OCC        inhibition          %             7.22
12  CC(C)Cn1cc(C2CCN(CCN3CCC(CNC(=O)c4ccc(NC(=O)c5cc(Cl)cc(Cl)c5)cc4)CC3)CC2)c2ccccc21        inhibition          %             4.22
13      CCCCNc1cc(NCCCC)c2c(n1)[nH]c1ccccc12        inhibition          %             16.6
14    CCCCc1ccc(NC(=O)Nc2ccc3c(c2)CCNCC3)cc1        inhibition          %             2.05
15  NC1=NC2(CCCCC2)N(OCCCCCCc2ccccc2)C(N)=N1        inhibition          %             1.39
16  CC(C)CCN1CCC(Oc2ccc(NC(=O)c3ccsc3)cc2Cl)CC1        inhibition          %             1.67
17  NCC1CCCN1Cc1ccc(-c2ccc(-c3nc4ccccc4[nH]3)s2)cc1 (stereo not drawn)        inhibition          %            -0.71
18  O=C(Nc1cccc(-c2cccc(-c3nc4ccccc4[nH]3)c2)c1)c1csnn1        inhibition          %             5.92
19      c1ccc(Oc2ccc(Nc3nncc4ccccc34)cc2)cc1        inhibition          %             0.25
20  CCCCCCN1CCCN(Cc2cccc(NC(=O)c3cc4ccccc4s3)c2)CC1        inhibition          %             3.42
21  O=C(/C=C/c1ccc(Cl)c(Cl)c1)NCCCCCN1CCCN(C(=O)Nc2cc(Cl)nc(Cl)c2)CC1        inhibition          %             6.64
22  O=C(CSc1nc2ccccc2c(=O)n1C1CC1)Nc1cc(C(F)(F)F)ccc1Cl        inhibition          %            -2.91
23  c1ccc2[nH]c(-c3ccc(-c4ccc(CN5CCN(CCN6CCOCC6)CC5)cc4)s3)nc2c1        inhibition          %             9.34
24  O=C(N[C@H](CC1CCCCC1)C(=O)NC1CCCc2ccccc21)c1ccc(O)c(-c2cccc([N+](=O)[O-])c2)c1 (stereo partly drawn)        inhibition          %             0.18
25  Cn1c(N=C2NC3(c4ccccn4)NC(=Nc4nc5ccccc5n4C)NC3(c3ccccn3)N2)nc2ccccc21 (stereo not drawn)        inhibition          %              2.5
26  O=c1cc(NCCCNCc2ccc(Cl)c(Cl)c2)[nH]c2ccc(C(F)(F)F)cc12        inhibition          %             1.67
27  NC1CCCN(Cc2ccc(-c3ccc(-c4nc5ccccc5[nH]4)s3)cc2)C1 (stereo not drawn)        inhibition          %             5.92
